# pIC50 per record follows
# STUDY_SYSTEM: Jak3 (Homo sapiens, UniProt P52333)
# Construct: Jak3 enzyme (aa 811-1103); GST
# Sequence (P52333 811-1103): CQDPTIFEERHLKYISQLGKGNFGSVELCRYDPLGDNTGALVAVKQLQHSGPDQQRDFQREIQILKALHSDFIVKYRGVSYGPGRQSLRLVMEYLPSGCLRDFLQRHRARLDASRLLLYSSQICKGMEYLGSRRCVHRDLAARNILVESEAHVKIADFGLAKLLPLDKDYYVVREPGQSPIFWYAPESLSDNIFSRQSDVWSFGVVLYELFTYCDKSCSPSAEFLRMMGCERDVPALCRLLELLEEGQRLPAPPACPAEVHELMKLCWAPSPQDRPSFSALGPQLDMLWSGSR
# ASSAY_PROCEDURE: Jak3 enzyme data for selected compounds
pIC50: −log10 of the molar value.

COMPOUND: CC[C@@H]1C[C@H](NS(=O)(=O)C2CC2)C[C@@H]1c1nnc2cnc3[nH]cc(I)c3n12
pIC50: 6.00 to 7.00
//
COMPOUND: CC[C@@H]1C[C@H](NS(=O)(=O)N2CCC2)C[C@@H]1c1nnc2cnc3[nH]ccc3n12
pIC50: 6.00 to 7.00
//
COMPOUND: CC[C@@H]1C[C@H](OCc2ccc(OC)cc2)C[C@H]1c1nnc2cnc3[nH]ccc3n12 (single isomer, unassigned) [AA.1.32]
pIC50: 6.00 to 7.00
//
COMPOUND: CC[C@@H]1C[C@H](Nc2ncc(C#N)s2)C[C@@H]1c1nnc2cnc3[nH]ccc3n12
pIC50: 6.00 to 7.00
//
COMPOUND: CC[C@@H]1C[C@@H](Oc2ccc(C#N)cn2)C[C@H]1c1nnc2cnc3[nH]ccc3n12 (racemic)
pIC50: < 6.00
//
COMPOUND: CC[C@@H]1C[C@H](Oc2cnc(C#N)cn2)C[C@@H]1c1nnc2cnc3[nH]ccc3n12 (relative stereo)
pIC50: 6.00 to 7.00
//
COMPOUND: C[C@@H]1CCN(c2cnc(C#N)cn2)C[C@@H]1c1ncc2cnc3[nH]ccc3n12 (racemic)
pIC50: > 7.00
//
COMPOUND: CC[C@@H]1C[C@H](NS(=O)(=O)N2CCN(C)CC2)C[C@@H]1c1nnc2cnc3[nH]ccc3n12
pIC50: < 6.00
//
COMPOUND: O=S(=O)(NC[C@H]1CC[C@H](c2ncc3cnc4[nH]ccc4n23)C1)C1CC1 (single isomer, unassigned)
pIC50: 6.00 to 7.00
//
COMPOUND: O=S(=O)(CCC(F)(F)F)N1CCC[C@H]2[C@H]1CCN2c1ncc2cnc3[nH]ccc3n12 (racemic)
pIC50: < 6.00
//
COMPOUND: CC[C@@H]1C[C@H](NS(=O)(=O)CCn2ccnn2)C[C@@H]1c1nnc2cnc3[nH]ccc3n12
pIC50: 6.00 to 7.00
//
COMPOUND: CC[C@@H]1C[C@H](Nc2cnc(C#N)cn2)C[C@@H]1c1ncc2cnc3[nH]ccc3n12
pIC50: > 7.00
//
COMPOUND: N#Cc1ccnc(NC[C@H]2CC[C@@H](c3nnc4cnc5[nH]ccc5n34)C2)c1
pIC50: < 6.00
//
COMPOUND: CC[C@@H]1C[C@H](NS(=O)(=O)C2CC2)C[C@@H]1n1cnc2cnc3[nH]ccc3c21 (single isomer, unassigned)
pIC50: > 7.00
//
COMPOUND: O=S(=O)(CCC(F)(F)F)NC1CCCN(c2ncc3cnc4[nH]ccc4n23)C1 (stereo not drawn)
pIC50: 6.00 to 7.00

----------
# pIC50 per record follows
# STUDY_SYSTEM: Jak3 (Homo sapiens, UniProt P52333)
# Construct: Jak3 enzyme (aa 811-1103); GST
# ASSAY_PROCEDURE: Jak3 enzyme data for selected compounds
pIC50: −log10 of the molar value.

COMPOUND: CC[C@H]1C[C@@H](COc2cnc(C#N)cn2)C[C@H]1c1nnc2cnc3[nH]ccc3n12 (single isomer, unassigned) [AA.1.42]
STUDY_SYSTEM: Jak3 (Homo sapiens, UniProt P52333)
pIC50: < 6.00
//
COMPOUND: C[C@@H]1C[C@H](NS(=O)(=O)C2CC2)CN1c1ncc2cnc3[nH]ccc3n12 [D.1.47]
STUDY_SYSTEM: Jak3 (Homo sapiens, UniProt P52333)
pIC50: 6.00 to 7.00
//
COMPOUND: O=C(N1CCCC1)N1CCC[C@@H](c2ncc3cnc4[nH]ccc4n23)C1 [I.3.1]
STUDY_SYSTEM: Jak3 (Homo sapiens, UniProt P52333)
pIC50: 6.00 to 7.00
//
COMPOUND: CCC1CC(CNS(=O)(=O)C2CC2)CC1c1nnc2cnc3[nH]ccc3n12 (single isomer, unassigned) [AA.1.64]
STUDY_SYSTEM: Jak3 (Homo sapiens, UniProt P52333)
pIC50: < 6.00
//
COMPOUND: CC[C@@H]1C[C@H](S(=O)(=O)CC(F)(F)F)C[C@@H]1c1nnc2cnc3[nH]ccc3n12 [LL.1.4]
STUDY_SYSTEM: Jak3 (Homo sapiens, UniProt P52333)
pIC50: < 6.00
//
COMPOUND: CC[C@@H]1C[C@H](NS(=O)(=O)C(C)(C)C)C[C@@H]1c1nnc2cnc3[nH]ccc3n12 [D.1.67]
STUDY_SYSTEM: Jak3 (Homo sapiens, UniProt P52333)
pIC50: 6.00 to 7.00
//
COMPOUND: CC[C@H]1C[C@@H](OCc2ccc(OC)cc2)C[C@@H]1c1n[nH]c2cnc3[nH]ccc3c12 (single isomer, unassigned) [Example #30]
STUDY_SYSTEM: Jak3 (Homo sapiens, UniProt P52333)
pIC50: 6.00 to 7.00

Data provenance is patent USRE47221E1.
